# target-system: human IGF1R (insulin-like growth factor 1 receptor) on cells (human, UniProt P08069 31-1367)
# Sequence (P08069 31-1367 limits assumed): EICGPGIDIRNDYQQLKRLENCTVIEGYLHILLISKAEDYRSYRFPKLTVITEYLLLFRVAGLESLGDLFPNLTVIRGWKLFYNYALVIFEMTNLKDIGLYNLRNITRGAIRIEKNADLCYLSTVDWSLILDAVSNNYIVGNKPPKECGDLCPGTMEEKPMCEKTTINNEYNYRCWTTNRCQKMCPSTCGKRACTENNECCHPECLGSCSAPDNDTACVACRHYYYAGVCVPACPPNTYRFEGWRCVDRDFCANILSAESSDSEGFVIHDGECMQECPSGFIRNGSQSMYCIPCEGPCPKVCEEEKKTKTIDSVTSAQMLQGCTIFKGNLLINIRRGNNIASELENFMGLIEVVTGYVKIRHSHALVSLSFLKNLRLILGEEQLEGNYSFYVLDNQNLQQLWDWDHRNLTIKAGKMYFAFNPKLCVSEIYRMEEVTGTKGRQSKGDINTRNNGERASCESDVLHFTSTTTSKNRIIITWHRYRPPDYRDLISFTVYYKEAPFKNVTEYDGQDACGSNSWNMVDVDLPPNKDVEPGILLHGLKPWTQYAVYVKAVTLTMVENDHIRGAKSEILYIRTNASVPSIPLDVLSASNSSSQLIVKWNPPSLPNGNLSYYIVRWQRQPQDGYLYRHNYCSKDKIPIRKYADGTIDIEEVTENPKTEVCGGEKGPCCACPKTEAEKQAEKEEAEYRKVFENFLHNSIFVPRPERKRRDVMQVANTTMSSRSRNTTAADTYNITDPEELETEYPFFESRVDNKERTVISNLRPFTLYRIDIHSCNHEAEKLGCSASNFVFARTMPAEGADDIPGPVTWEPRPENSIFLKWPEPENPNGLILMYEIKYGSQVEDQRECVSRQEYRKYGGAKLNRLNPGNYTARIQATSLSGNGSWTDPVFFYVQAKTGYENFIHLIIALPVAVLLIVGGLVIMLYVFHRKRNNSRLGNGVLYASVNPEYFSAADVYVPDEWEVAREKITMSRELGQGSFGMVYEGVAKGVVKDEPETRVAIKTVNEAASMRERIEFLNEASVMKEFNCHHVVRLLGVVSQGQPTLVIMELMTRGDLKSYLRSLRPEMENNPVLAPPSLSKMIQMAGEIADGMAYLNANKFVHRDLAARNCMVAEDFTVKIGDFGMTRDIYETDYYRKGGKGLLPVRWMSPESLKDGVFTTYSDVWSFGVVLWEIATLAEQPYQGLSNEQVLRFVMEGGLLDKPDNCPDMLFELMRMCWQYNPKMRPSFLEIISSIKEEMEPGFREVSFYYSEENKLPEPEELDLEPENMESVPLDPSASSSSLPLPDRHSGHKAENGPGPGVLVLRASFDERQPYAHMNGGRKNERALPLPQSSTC
# experiment-summary: cell-based or functional assay
measurement-kind: EC50 of internalization (MFI of pHAb-labelled secondary Fab, NCI-H838 cells) (nM)
Lab book: enter the figure in nM, no units written.

Form field EC50 of internalization (MFI of pHAb-labelled secondary Fab, NCI-H838 cells), entry anti-IGF1R antibody 12A4 (antibody, V domains shown) VH: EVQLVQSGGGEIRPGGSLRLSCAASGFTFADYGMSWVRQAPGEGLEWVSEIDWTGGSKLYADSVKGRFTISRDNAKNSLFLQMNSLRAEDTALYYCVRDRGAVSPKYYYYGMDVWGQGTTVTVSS VL: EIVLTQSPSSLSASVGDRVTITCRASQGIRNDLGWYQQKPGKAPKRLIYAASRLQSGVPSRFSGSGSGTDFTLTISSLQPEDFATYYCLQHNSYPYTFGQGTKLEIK : 0.92
